Values compiled from patent US20210380703A1.

# measured_target: human Fc (human)
# method_summary: ELISA, negative control
property_label: optical density (OD)
Report as a plain number; the unit OD is understood.

Dear colleague, please send me the reported optical density for 370_D07 (antibody, V domains shown) VH: EVQLLESGGGLVQPGGSLRLSCAASGFTFSSYGMNWVRQAPGKGLEWVSNINYNSGYTGYADSVKGRFTISRDNSKNTLYLQMNSLRAEDTAVYYCARSATWHDTHLDYWGQGTLVTVSS VL: DIQMTQSPSSLSASVGDRVTITCRASQSILSYVNWYQQKPGKAPKLVIYAATSLASGVPSRFSGSGSGTDFTLTISSLQPEDFATYYCQQSYESPLTFGGGTKVEIK when you can.
0.309

Dear colleague, please send me the reported optical density for 368_C12 (antibody, V domains shown) VH: EVQLLESGGGLVQPGGSLRLSCAASGFTFDSYGMHWVRQAPGKGLEWVASINYNGGYTSYADSVKGRFTISRDNSKNTLYLQMNSLRAEDTAVYYCARAATWHDTHLDYWGQGTLVTVSS VL: DIQMTQSPSSLSASVGDRVTITCRASQSILTYLNWYQQKPGKAPKLLIYAATSRASGVPSRFSGSGSGTDFTLTISSLQPEDFATYYCQQSDSNPLTFGGGTKVEIK when you can.
0.346

Dear colleague, please send me the reported optical density for 368_G07 (antibody, V domains shown) VH: EVQLLESGGGLVQPGGSLRLSCAASGFTFSSYSMHWVRQAPGKGLEWVSSINYNGGYTSYADSVKGRFTISRDNSKNTLYLQMNSLRAEDTAVYYCARSATWHDTHLDYWGQGTLVTVSS VL: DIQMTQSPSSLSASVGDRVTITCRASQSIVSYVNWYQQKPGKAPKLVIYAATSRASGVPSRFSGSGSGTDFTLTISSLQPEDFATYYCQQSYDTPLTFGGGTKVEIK when you can.
0.29
